Values from patent US20110301087A1

- system tested: CRF1 (Homo sapiens)
- Construct: endogenously expresses functional CRF1; endogenous in cells
- Sequence (P34998 24-415): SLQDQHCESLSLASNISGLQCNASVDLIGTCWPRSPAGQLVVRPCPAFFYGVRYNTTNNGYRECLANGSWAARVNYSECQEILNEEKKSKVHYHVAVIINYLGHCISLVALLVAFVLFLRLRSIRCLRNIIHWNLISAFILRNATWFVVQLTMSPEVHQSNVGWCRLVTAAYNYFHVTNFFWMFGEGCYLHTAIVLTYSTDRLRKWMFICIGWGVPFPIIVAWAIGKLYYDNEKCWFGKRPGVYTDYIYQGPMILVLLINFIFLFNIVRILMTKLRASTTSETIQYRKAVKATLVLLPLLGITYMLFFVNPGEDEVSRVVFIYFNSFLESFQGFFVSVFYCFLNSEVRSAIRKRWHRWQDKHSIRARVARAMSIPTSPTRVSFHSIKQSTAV
- method: CRF1 assessment of cAMP (HTRF cAMP assay) in Y-79 cells, antagonist mode
- run parameters: CRF1 cAMP screening, Y79 cells, against agonist
pIC50: −log10 of the molar value. Where a SMILES comes first, the peptide text is derived from it. The star is where a group is joined. Palmitoyl = CCCCCCCCCCCCCCCC(=O)*
Record form. Attribute: pIC50. Fill in for each entry.

Which pIC50 value is on record for CCCCCCCCCCCCCCCC(=O)N[C@@H](Cc1ccc(O)cc1)C(=O)N[C@@H](CO)C(=O)N[C@H](C(=O)N[C@@H](CC(=O)O)C(=O)N[C@@H](CCCNC(=N)N)C(=O)N[C@@H](CC(C)C)C(=O)N[C@@H](CCCNC(=N)N)C(=O)N[C@@H](CCCCN)C(=O)N[C@@H](Cc1c[nH]c2ccccc12)C(=O)N[C@@H](CCSC)C(=O)N[C@@H](Cc1ccccc1)C(=O)N[C@H](C(N)=O)[C@@H](C)CC)[C@@H](C)O [Compound 34] (Palmitoyl-YSTDRLRKWMFI-NH2) ? 6.00 to 6.30

Next up: CCCCCCCCCCCCCCCC(=O)N[C@H](C(=O)N[C@@H](CC(=O)O)C(=O)N[C@@H](CCCNC(=N)N)C(=O)N[C@@H](CC(C)C)C(=O)N[C@@H](CCCNC(=N)N)C(=O)N[C@@H](CCCCN)C(=O)N[C@@H](Cc1c[nH]c2ccccc12)C(=O)N[C@@H](CCSC)C(=O)N[C@@H](Cc1ccccc1)C(=O)N[C@H](C(N)=O)[C@@H](C)CC)[C@@H](C)O [Compound 32, Pal-TDRLRKWMFI-amide] (Palmitoyl-TDRLRKWMFI-NH2) 6.00 to 6.30

Next up: CCCCCCCCCCCCCCCC(=O)NCC(=O)N[C@@H](CO)C(=O)N[C@H](C(=O)N[C@@H](CC(=O)O)C(=O)N[C@@H](CCCNC(=N)N)C(=O)N[C@@H](CC(C)C)C(=O)N[C@@H](CCCNC(=N)N)C(=O)N[C@@H](CCCCN)C(=O)N[C@@H](Cc1c[nH]c2ccccc12)C(=O)N[C@@H](CCSC)C(=O)N[C@@H](Cc1ccccc1)C(=O)N[C@H](C(N)=O)[C@@H](C)CC)[C@@H](C)O [Compound 29, Pal-GSTDRLRKWMFI-amide] (Palmitoyl-GSTDRLRKWMFI-NH2) 6.00 to 6.30

Next up: CCCCCCCCCCCCCCCC(=O)N[C@H](C(=O)N[C@@H](C)C(=O)N[C@@H](CCCNC(=N)N)C(=O)N[C@@H](CC(C)C)C(=O)N[C@@H](CCCNC(=N)N)C(=O)N[C@@H](CCCCN)C(=O)N[C@@H](Cc1c[nH]c2ccccc12)C(=O)N[C@@H](CCSC)C(=O)N[C@@H](Cc1ccccc1)C(=O)N[C@H](C(N)=O)[C@@H](C)CC)[C@@H](C)O [Compound 45] (Palmitoyl-TARLRKWMFI-NH2) < 5.00
